Hey, just so you know, these numbers are from PubChem BioAssay (NCI).

# System: ACHN renal
# test_method_notes: NCI-60 one-dose screen, 48 h (100 = growth as untreated, 0 = no growth, -100 = all killed)
# condition_notes: 10 µM unless noted
About 83,000 compounds went through this panel and 20% of them were active in at least one assay; those are over-represented in the sample as a whole.
Please respond with reported growth for every item in the list.
Note: unit % is implicit; provide only the numeric part.

Tell me its growth given `O=C1N/C(=C\c2ccccc2)c2ncccc21` as the entry.
103

Specify growth for `O=C(COc1ccc(/C=C2\CSc3ccccc3C2=O)cc1)c1ccc(Cl)cc1` and stop.
99

Determine from records and report growth for COc1cc(/C=N/NC(=O)c2cnn3c2NC(c2ccccc2)C3)cc(OC)c1OC (centres undefined)
80.2

Determine its reported growth: `O=C(Nc1ccccc1O)c1ccc(NS(=O)(=O)c2cccc3cccnc23)cc1`
52.1

Respond only with growth recorded for `COc1ncnc2c1ncn2C/C(Br)=C(\Br)CCl`
14.9

Name the recorded growth of the item O=[N+]([O-])c1cc2c(cc1Br)C1C(C3C2C(Cl)(Cl)C(Cl)=C(Cl)C3(Cl)Cl)C(Cl)(Cl)C(Cl)=C(Cl)C1(Cl)Cl (centres undefined) in your answer.
102

Fill in growth for record COc1ccc(/C=N/NC(=O)c2cnn(CC(O)Cc3ccccc3)c2N)cc1OC1CCCC1 (centres undefined)
87.5

Write down growth measured for item `CN1CCN(c2ccc3nc(-c4ccc5nc(-c6ccc(C(F)(F)F)cc6)[nH]c5c4)[nH]c3c2)CC1`
55.6

Given COc1cc(C2C3=C(COC3=O)N(CCO)c3cc4c(cc32)OCO4)cc(OC)c1O (centres undefined) , respond with its growth.
37.9

For the compound `COc1ccc(-c2[nH]ncc2Nc2cc(OC)c(OC)c(OC)c2)cc1` , report growth.
55.7

Query growth for `COc1ccc(Cn2c(Br)c3c(c2-c2cc(OC)c(OC)c(OC)c2)CCc2sc(N)nc2-3)cc1`
42.1

Specify measured growth for `O=C1c2c(c3c4cc(Br)ccc4[nH]c3c3ccc4ccccc4c23)C(=O)N1O` .
73.3

Determine from records and report growth for `COc1ccc(OC)c(/C=C2\Oc3cc(O)ccc3C2=O)c1`
68.3

Output growth of `CCCCNNC(=O)c1ccc(Br)cc1`
71.4

Let me know recorded growth for COc1cc(C2CC(=O)Nc3c2ccc2ccccc32)cc(Br)c1OC (centres undefined) , thanks.
45.9

Give recorded growth. `FC(F)(F)c1cc(CNc2ncc(Br)c(Cl)n2)cc(C(F)(F)F)c1`
104

Consider the compound `COc1cc(CNCCN2C(=O)c3ccc4c5c(ccc(c35)C2=O)C(=O)N(CCNCc2cc(OC)c(OC)c(OC)c2)C4=O)cc(OC)c1OC` . State its measured growth.
-92.2

Please give the documented growth of `CCCCCCCC/C=C\CCCCCCCCOc1cccc(CC(=O)NCC[N+]2(C)CCOCC2)c1`
94

Quickly give me recorded growth for `COc1cc(-c2nc(Nc3nc4ccccc4[nH]3)nc(N)c2C#N)cc(OC)c1OC`
61.7

Please supply the value of reported growth for the item `COc1ccccc1/C=C/C(=O)/C=C/c1ccccc1O`
-81.1

Look up and state reported growth for `O=c1onc(-c2ccccc2)c2ccccc12`
112

State its growth for this compound: `O=C(Nc1ccc(Cl)c(Cl)c1)NC(CO)(CO)CO`
97.7

Note down growth recorded for `Cc1ccc(-c2c3c(N)c4c(nc3nc3c2c(C)nn3-c2ccccc2)CCCC4)cc1`
97.7

Annotate the compound CC(C)(C)[Si](C)(C)OC1[C@@H](O[Si](C)(C)C(C)(C)C)[C@@H](CNC(=O)NC(=O)C(F)(F)F)O[C@H]1n1cnc2c(NC(=O)Nc3ccccc3)ncnc21 (some centres undefined) with its measured growth.
76.2

Report growth, nothing else, for this compound: `COC(=O)c1cc(-c2ccc(C)cc2)n(C(=O)CSc2nc3sc(C(N)=O)c(C)c3c(=O)n2Cc2ccccc2)n1`
98.8

Respond only with growth recorded for COC1(OC)C2(Cl)C=C(c3ccccc3)C1(Cl)C(Cl)=C2Cl (centres undefined)
108

Read the entry C=C(C)CCCC(C)CC#N (centres undefined) and write its reported growth.
103

Give the measured growth for `COc1ccc(NC(=O)COc2ccccc2)c(C(N)=O)c1`
55.7

State, in one line, measured growth of `COc1cc(/C=C2\C(=O)Nc3ccccc32)cc(OC)c1O`
77

Return growth for the following compound: `O=C1/C(=C/c2ccc([N+](=O)[O-])cc2)Oc2ccc(O)cc21`
82.3

Could you please provide reported growth for `O=C(CCCCCCC(=O)Nc1ccc2c(c1)/C(=C/c1ccc[nH]1)C(=O)N2)NO` ? Thanks!
4.49

Give recorded growth. `O=[N+]([O-])c1ccc2nc(N/N=C/c3ccc(O)cc3)sc2c1`
47

Give the value of growth reported for the following: O=C1C2CC3C(CC2C(=O)[N]1[Sn]([c]1ccccc1)([c]1ccccc1)[c]1ccccc1)C1(Cl)C(Cl)=C(Cl)C3(Cl)C1(Cl)Cl (centres undefined)
-99.8

Given `COc1cc(/C=C/C(=O)C(=Cc2ccc(F)c(F)c2)C(=O)/C=C/c2ccc(O)c(OC)c2)ccc1O` , respond with its growth.
27.3

Give the reported growth for this compound. `COc1ccccc1CNCCCCCCCCCCCCN1C(=O)c2ccc3c4c(ccc(c24)C1=O)C(=O)N(CCCCCCCCCCCCNCc1ccccc1OC)C3=O`
78.4

Consider the compound CC(C)(C)[Si](C)(C)OC1[C@@H](COC(N)=O)O[C@@H](n2cnc3c(N)ncnc32)[C@H]1O[Si](C)(C)C(C)(C)C (some centres undefined) . State its measured growth.
89.1

Please report growth for the following compound: `COc1ccc(/C=C(\C#N)c2ccc(OC)cc2)cc1`
88.3

Input `COc1nc2c(cc1S(=O)(=O)c1ccccc1)CCc1c-2cnn1-c1ccccc1Cl` , output reported growth.
62.5

Identify growth associated with the compound `CCCCCCCCCCCCCCNc1nc(CO)ncc1-c1ccc(C(F)(F)F)cc1`
102
